Molecular target: Polyamine deacetylase HDAC10 (Homo sapiens, UniProt Q969S8)
Sequence (Q969S8 whole entry): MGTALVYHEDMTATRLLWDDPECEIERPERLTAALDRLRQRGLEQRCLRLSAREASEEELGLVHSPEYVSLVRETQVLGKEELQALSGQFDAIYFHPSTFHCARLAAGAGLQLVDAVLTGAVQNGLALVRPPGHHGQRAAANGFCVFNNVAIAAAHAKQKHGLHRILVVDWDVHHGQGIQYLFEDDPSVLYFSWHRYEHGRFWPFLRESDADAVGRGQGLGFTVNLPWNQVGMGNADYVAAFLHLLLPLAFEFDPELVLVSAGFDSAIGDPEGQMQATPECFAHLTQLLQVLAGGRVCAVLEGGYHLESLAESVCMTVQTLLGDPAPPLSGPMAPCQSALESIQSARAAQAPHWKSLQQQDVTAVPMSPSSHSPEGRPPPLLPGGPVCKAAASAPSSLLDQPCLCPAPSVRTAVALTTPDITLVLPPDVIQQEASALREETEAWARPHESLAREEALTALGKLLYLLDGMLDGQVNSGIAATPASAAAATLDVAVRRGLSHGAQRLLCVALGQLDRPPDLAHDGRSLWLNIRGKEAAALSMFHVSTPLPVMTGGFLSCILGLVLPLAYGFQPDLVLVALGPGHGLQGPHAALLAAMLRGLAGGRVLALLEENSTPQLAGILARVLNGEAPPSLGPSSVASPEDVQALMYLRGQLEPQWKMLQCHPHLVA
Assay: Inhibition of human HDAC10 after 15 mins by trypsin-coupled fluorescence assay
Measured parameter: pIC50
Answers are plain numbers, as −log10 of the molar value.

Asked: Which pIC50 is listed for `O=C(NO)c1ccc(CN(CCO)C(=O)Cc2ccccc2)cc1` ?
Given back: 6.15

###

Target: Histone deacetylase 3 (Homo sapiens)
Sequence (O15379 whole entry): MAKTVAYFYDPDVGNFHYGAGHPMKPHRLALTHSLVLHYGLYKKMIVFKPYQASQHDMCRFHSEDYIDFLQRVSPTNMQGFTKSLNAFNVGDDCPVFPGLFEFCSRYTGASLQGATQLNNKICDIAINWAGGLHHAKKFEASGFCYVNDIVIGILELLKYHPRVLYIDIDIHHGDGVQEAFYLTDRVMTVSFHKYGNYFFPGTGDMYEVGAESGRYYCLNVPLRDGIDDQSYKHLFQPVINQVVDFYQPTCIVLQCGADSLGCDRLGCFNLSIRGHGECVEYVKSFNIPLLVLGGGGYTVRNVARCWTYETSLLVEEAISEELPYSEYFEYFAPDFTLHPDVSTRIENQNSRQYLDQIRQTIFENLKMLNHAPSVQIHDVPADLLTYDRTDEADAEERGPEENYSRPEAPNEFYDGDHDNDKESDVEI
Assay: Inhibition of HDAC3 (unknown origin) by fluorescence assay
Measured parameter: IC50

Asked: Which IC50 is listed for `O=C(NO)c1cccc(-c2csc(CSc3ccccc3)n2)c1` ?
Given back: 12 µM

###

Biological target: Histone deacetylase 8 (Homo sapiens, UniProt Q9BY41)
Sequence (Q9BY41 whole entry): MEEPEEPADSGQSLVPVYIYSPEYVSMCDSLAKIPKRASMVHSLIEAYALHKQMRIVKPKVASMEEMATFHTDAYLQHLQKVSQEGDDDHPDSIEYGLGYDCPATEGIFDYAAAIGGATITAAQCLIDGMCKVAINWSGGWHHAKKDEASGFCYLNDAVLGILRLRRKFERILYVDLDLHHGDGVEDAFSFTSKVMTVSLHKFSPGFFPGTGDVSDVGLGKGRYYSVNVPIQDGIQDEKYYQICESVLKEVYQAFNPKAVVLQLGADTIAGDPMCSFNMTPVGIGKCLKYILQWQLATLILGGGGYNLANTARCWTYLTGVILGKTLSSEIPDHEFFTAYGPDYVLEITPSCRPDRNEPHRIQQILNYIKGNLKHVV
Experiment: Inhibition of human HDAC8 using ZMTFAL as substrate after 90 mins by fluorescence assay
Measured parameter: IC50 (µM)
Answers are plain numbers, in µM.

Asked: Which IC50 is listed for `O=C1Nc2ccccc2/C1=N/NC(=S)Nc1ccc(C(=O)NO)cc1` ?
Given back: 15.7
